- TARGET: ALK5 (Mus musculus)
- Construct: determined in C2C12 cell lines (ATCC; Manassas, VA, United States); host or cells: C2C12
- Sequence (Q64729 30-503): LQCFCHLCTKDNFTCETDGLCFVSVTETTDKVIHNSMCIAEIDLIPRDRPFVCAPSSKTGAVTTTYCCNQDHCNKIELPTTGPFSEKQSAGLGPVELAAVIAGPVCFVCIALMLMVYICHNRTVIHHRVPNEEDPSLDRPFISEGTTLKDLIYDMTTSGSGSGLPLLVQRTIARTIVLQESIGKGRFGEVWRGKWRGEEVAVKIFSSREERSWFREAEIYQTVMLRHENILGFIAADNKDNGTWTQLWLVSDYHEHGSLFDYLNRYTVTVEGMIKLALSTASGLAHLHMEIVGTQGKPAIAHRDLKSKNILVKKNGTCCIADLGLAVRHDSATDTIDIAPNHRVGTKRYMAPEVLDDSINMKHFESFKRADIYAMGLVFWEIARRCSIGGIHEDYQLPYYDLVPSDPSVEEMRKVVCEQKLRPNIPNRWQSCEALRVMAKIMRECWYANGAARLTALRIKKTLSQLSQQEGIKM
- PROTOCOL TEXT: TGFβ-stimulated SMAD2/3 phosphorylation in C2C12 cells (HTRF)
- Type: cell-based
- CONDITION SET: C2C12 cells, SMAD2/3 phosphorylation, HTRF; read-out: TGFβ (mediated by ALK5) IC50
OBSERVED PROPERTY: IC50
Reply with a number, then the unit it belongs to.

{"columns": ["MOLECULE", "IC50"],
 "data": [
  ["c1ccc2c(-c3cnn4cc(-c5ccc(OCCN6CCCCC6)nc5)cnc34)ccnc2c1 [Compound 2]", "27.4 µM"]
]}

Could you now consider this next molecule?
The reported value for Cc1cc(-c2cnn3cc(-c4ccc(OCCN5CCCCC5)nc4)cnc23)c2ccccc2n1 [Compound 3] in terms of IC50 is 2.66 µM

###

Please respond with reported IC50 for every item in the list.
- TARGET: ALK2 (Mus musculus, UniProt P37172)
- Construct: determined in C2C12 cell lines (ATCC; Manassas, VA, United States)
- Sequence (P37172 21-509): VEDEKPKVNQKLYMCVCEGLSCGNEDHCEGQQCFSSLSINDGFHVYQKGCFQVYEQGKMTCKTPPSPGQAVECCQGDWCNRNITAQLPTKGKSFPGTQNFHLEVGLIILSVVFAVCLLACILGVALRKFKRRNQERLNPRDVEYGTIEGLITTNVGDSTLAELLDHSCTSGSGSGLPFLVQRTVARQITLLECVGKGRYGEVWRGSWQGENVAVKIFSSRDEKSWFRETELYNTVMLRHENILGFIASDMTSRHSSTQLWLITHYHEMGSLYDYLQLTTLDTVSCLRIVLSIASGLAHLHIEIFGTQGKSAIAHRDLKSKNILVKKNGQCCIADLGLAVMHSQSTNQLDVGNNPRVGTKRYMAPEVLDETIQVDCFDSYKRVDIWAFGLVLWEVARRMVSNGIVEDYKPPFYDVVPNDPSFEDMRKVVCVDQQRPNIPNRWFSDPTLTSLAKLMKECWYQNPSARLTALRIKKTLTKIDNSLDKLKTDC
- PROTOCOL TEXT: BMP6-stimulated SMAD1/5/8 phosphorylation in C2C12 cells (HTRF)
- CONDITION SET: C2C12 cells, SMAD1/5/8 phosphorylation, HTRF; read-out: BMP6 (mediated by ALK2) IC50
Numbers only, in nM.

The following molecules have reported results that may help.
{"columns": ["CPD SMILES", "RESULT UNIT", "IC50"],
 "data": [
  ["c1ccc2c(-c3cnn4cc(-c5ccc(OCCN6CCCCC6)nc5)cnc34)ccnc2c1", "nM", 227],
  ["Cc1cc(-c2cnn3cc(-c4ccc(OCCN5CCCCC5)nc4)cnc23)c2ccccc2n1", "nM", 466]
]}

Could you now consider this next molecule?
The reported value for Cc1cc(-c2cnn3cc(-c4ccc(N5CCNCC5)cc4)cnc23)c2ccccc2n1 in terms of IC50 is 120

###

- PROTOCOL TEXT: Stirring double-sink PAMPA permeability
- Format: in vitro ADME
- CONDITION SET: passive diffusion
OBSERVED PROPERTY: Papp (×10⁻⁶ cm/s)
Answers are plain numbers, in ×10⁻⁶ cm/s.

{"columns": ["COMPOUND", "RESULT UNIT", "Papp"],
 "data": [
  ["c1ccc2c(-c3cnn4cc(-c5ccc(OCCN6CCCCC6)nc5)cnc34)ccnc2c1 [Compound 2]", "×10⁻⁶ cm/s", 7],
  ["Cc1cc(-c2cnn3cc(-c4ccc(OCCN5CCCCC5)nc4)cnc23)c2ccccc2n1 [Compound 3]", "×10⁻⁶ cm/s", 1070],
  ["Cc1cc(-c2cnn3cc(-c4ccc(N5CCNCC5)cc4)cnc23)c2ccccc2n1 [Compound 1]", "×10⁻⁶ cm/s", 437]
]}

Could you now consider this next compound?
The reported value for c1ccc2c(-c3cnn4cc(-c5ccc(N6CCNCC6)cc5)cnc34)ccnc2c1 [LDN-193189, reference compound] in terms of Papp is 320

###

- PROTOCOL TEXT: Kinetic solubility (μSOL Evolution, pH 7.4 phosphate buffer)
- Assay type: physicochemical
- CONDITION SET: pH 7.4, aqueous buffer, kinetic from dmso stock
OBSERVED PROPERTY: solubility at 6 h (µg/mL)
Give bare numbers, in µg/mL.

{"columns": ["COMPOUND", "OBSERVED PROPERTY", "ENDPOINT RESULT"],
 "data": [
  ["c1ccc2c(-c3cnn4cc(-c5ccc(N6CCNCC6)cc5)cnc34)ccnc2c1 [LDN-193189, reference compound]", "solubility at 6 h", 1.1],
  ["Cc1cc(-c2cnn3cc(-c4ccc(N5CCNCC5)cc4)cnc23)c2ccccc2n1 [Compound 1]", "solubility at 6 h", 1]
]}

Could you now consider this next compound?
The reported value for Cc1cc(-c2cnn3cc(-c4ccc(OCCN5CCCCC5)nc4)cnc23)c2ccccc2n1 [Compound 3] in terms of solubility at 6 h is 36.2

###

- PROTOCOL TEXT: In vitro metabolic stability screening assay with rat liver microsomes
- Format: in vitro ADME
- CONDITION SET: rat liver microsomes 0.5 mg/mL, 1 μM compound, single time point 15 min, 37°C; read-out: Microsomal Stability t1/2
OBSERVED PROPERTY: half-life at 1 μM

The following compounds have reported results that may help.
{"columns": ["COMPOUND", "half-life at 1 μM"],
 "data": [
  ["Cc1cc(-c2cnn3cc(-c4ccc(N5CCNCC5)cc4)cnc23)c2ccccc2n1", "> 30 min"],
  ["Cc1cc(-c2cnn3cc(-c4ccc(OCCN5CCCCC5)nc4)cnc23)c2ccccc2n1", "> 30 min"],
  ["c1ccc2c(-c3cnn4cc(-c5ccc(OCCN6CCCCC6)nc5)cnc34)ccnc2c1", "22 min"]
]}

Could you now consider this next compound?
The reported value for c1ccc2c(-c3cnn4cc(-c5ccc(N6CCNCC6)cc5)cnc34)ccnc2c1 [LDN-193189, reference compound] in terms of half-life at 1 μM is > 30 min

###

- PROTOCOL TEXT: Metabolite profiling of LDN-193189 in liver microsomal/cytosolic fractions of six species (LC/UV/MS, GSH and KCN trapping)
- CONDITION SET: LDN-193189 10 μM, 60 min; M mouse, R rat, Rb rabbit, D dog, Mo monkey, H human
OBSERVED PROPERTY: Species in which the metabolite of LDN-193189 was observed

{"columns": ["MOLECULE", "ENDPOINT RESULT"],
 "data": [
  ["O=C1CN(c2ccc(-c3cnc4c(-c5ccnc6ccccc56)cnn4c3)cc2)CCN1", "M, R, Rb, D, Mo, H"],
  ["OCCNc1ccc(-c2cnc3c(-c4ccnc5ccccc45)cnn3c2)cc1", "Rb, D, Mo, H"],
  ["O=C(O)CNc1ccc(-c2cnc3c(-c4ccnc5ccccc45)cnn3c2)cc1", "Rb, D, Mo, H"],
  ["N#CC1CNCCN1c1ccc(-c2cnc3c(-c4ccnc5ccccc45)cnn3c2)cc1 (centres unmarked)", "M, R, Rb, D, Mo, H"],
  ["N#CC1CNC(=O)CN1c1ccc(-c2cnc3c(-c4ccnc5ccccc45)cnn3c2)cc1 (centres unmarked)", "M, R, Rb, D, Mo, H"]
]}

Could you now consider this next molecule?
The reported value for NCCN(CC(=O)O)c1ccc(-c2cnc3c(-c4ccnc5ccccc45)cnn3c2)cc1 in terms of Species in which the metabolite of LDN-193189 was observed is M, R, Rb, D, Mo, H

###

- TARGET: ALK3 (Mus musculus)
- Construct: determined in C2C12 cell lines (ATCC; Manassas, VA, United States)
- Sequence (P36895 24-532): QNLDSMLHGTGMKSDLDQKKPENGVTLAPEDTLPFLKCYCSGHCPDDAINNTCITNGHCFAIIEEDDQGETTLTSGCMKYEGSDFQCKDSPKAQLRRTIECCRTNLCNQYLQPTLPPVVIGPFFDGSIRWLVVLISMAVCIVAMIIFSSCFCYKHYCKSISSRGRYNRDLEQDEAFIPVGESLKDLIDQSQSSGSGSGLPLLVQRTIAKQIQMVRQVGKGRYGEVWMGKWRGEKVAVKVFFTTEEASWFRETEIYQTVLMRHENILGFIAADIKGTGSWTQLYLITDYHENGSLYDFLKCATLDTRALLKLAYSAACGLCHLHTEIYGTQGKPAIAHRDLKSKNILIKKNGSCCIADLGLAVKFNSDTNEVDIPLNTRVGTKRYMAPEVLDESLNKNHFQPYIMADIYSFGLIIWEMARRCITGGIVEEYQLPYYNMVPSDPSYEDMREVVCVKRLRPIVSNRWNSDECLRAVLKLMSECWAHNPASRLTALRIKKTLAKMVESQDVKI
- PROTOCOL TEXT: BMP4-stimulated SMAD1/5/8 phosphorylation in C2C12 cells (HTRF)
- CONDITION SET: read-out: BMP4 (mediated by ALK3) IC50
Please respond with reported IC50 for every item in the list.
One number for each entry, in µM.

The following compounds have reported results that may help.
{"columns": ["COMPOUND", "IC50 [µM]"],
 "data": [
  ["c1ccc2c(-c3cnn4cc(-c5ccc(N6CCNCC6)cc5)cnc34)ccnc2c1 [LDN-193189, reference compound]", 0.585],
  ["Cc1cc(-c2cnn3cc(-c4ccc(OCCN5CCCCC5)nc4)cnc23)c2ccccc2n1", 4.34]
]}

Could you now consider this next compound?
The reported value for c1ccc2c(-c3cnn4cc(-c5ccc(OCCN6CCCCC6)nc5)cnc34)ccnc2c1 in terms of IC50 is 3.27
